Molecular target: NMDA receptor
Experiment: [3H] MK-801 binding test on rat brain membrane specimen
Settings: read-out: Ki (NMDA receptor affinity)
Counter-ions that a name gives are not always drawn.
List of Ki values.
The figure you give is taken to be in nM; do not add the unit.

Here is how some compounds turned out for Ki.
Return Ki for the following compound: CC1(C)Cc2ccc(C#N)cc2C1(C)N (stereo not shown) [Example 44, hydrochloride]
600

// fetch Ki given entry CCCCC1(N)c2ccccc2CC1(C)C (stereo not shown)
500

Retrieve Ki measured for COc1ccc2c(c1)C(C)(N)C(C)(C)C2 (stereo not shown) [Example 38, hydrochloride] and print it.
300

Supply reported Ki belonging to this compound: CC1(C)Cc2ccc(C(F)(F)F)cc2C1(C)N (stereo not shown) [Example 43, hydrochloride]
300

Determine its reported Ki: CC1(C)Cc2ccccc2C1(N)c1ccc(F)cc1 (stereo not shown) [Example 17, monofumarate]
800

Please list Ki recorded for the compound CC1(C)Cc2ccc(Br)cc2C1(C)N (stereo not shown) [Example 42, hydrochloride]
300

Indicate the recorded Ki value for this compound: CC1(C)Cc2cccc(F)c2C1(C)N (stereo not shown) [Example 48, hydrochloride]
600

For the compound CNC1(c2ccccc2)c2ccccc2CC1(C)C (stereo not shown) [Example 10, hydrochloride] , give its reported Ki.
400

Check the records and state Ki for CCC1(CC)Cc2ccccc2C1(N)c1ccccc1 (stereo not shown)
400

Next up:
For the compound Cc1ccc2c(c1)C(C)(N)C(C)(C)C2 (stereo not shown) [Example 36, hydrochloride] , give its reported Ki.
400
